All figures here come from patent USRE47689E1.

# key: entry, value: melting point

Worked examples follow.
| compound | readout | experimental.result |
| --- | --- | --- |
| Cc1cc(F)c2nc(-c3cc4ccc(N5CC6CCC5CN6)cc4oc3=O)cn2c1 (centres unmarked) | melting point | 246 to 256 °C |
| Cc1cnc2nc(-c3cc4ccc(N5CCN(C)CC5)cc4oc3=O)cn2c1 | melting point | > 310 °C |
| Cc1cc(F)cn2cc(-c3cc4ccc(N5CCCN(C)CC5)cc4oc3=O)nc12 | melting point | 191 to 198 °C |
| Cc1cn2cc(-c3cc4ccc(CCCN5CCC[C@@H]5CO)cc4oc3=O)nc2c(C)n1 | melting point | 182 to 185 °C |
| C[C@@H]1CN[C@@H](C)CN1c1ccc2cc(-c3cn4cc(Cl)ccc4n3)c(=O)oc2c1 | melting point | 245 to 247 °C |

Asked: Look up melting point for this compound: C[C@@H]1CN(c2ccc3cc(C(=O)Nc4ccccc4)c(=O)oc3c2)C[C@H](C)N1
Given back: 231 to 233 °C

Asked: Look up melting point for this compound: Cc1cn2cc(-c3cc4ccc(CCN5CCC[C@@H]5CO)cc4oc3=O)nc2c(C)n1
Given back: 166 to 171 °C

Asked: Look up melting point for this compound: O=c1oc2cc(CO)cc(F)c2cc1-c1cn2ccsc2n1
Given back: 278 to 282 °C

---

# key: entry, value: melting point

Worked examples follow.
| molecule | melting point |
| --- | --- |
| Cc1cc(F)cn2cc(-c3cc4ccc(N5CCNCC5)cc4oc3=O)nc12 [Compound 328] | 223 to 230 °C |
| Cc1cc(Cl)c2nc(-c3cc4ccc(N5CCN(C)CC5)cc4oc3=O)cn2c1 [Compound 343] | 245 to 253 °C |
| C[C@@H]1CN(c2ccc3cc(-c4cn5cc(F)cc(F)c5n4)c(=O)oc3c2)C[C@H](C)N1 [Compound 523] | 267 to 277 °C |
| O=c1oc2cc(N3CCNCC3)ccc2cc1Nc1ccccn1 [Cpd 32] | 191 to 194 °C |
| Cc1cn2cc(-c3cc4ccc(N5CCN(C(C)C)CC5)cc4oc3=O)nc2c(C)n1 [Compound 792] | 240 to 242 °C |
| Cc1cn2cc(-c3cc4ccc(C5CCN(CCO)CC5)cc4oc3=O)nc2c(C)n1 [Compound 750] | 207 to 212 °C |

Asked: Look up melting point for this molecule: CC(C)NCc1ccc2cc(-c3cn4ccsc4n3)c(=O)oc2c1 [Compound 199]
Given back: 141 to 145 °C

Asked: Look up melting point for this molecule: Cc1cn2cc(-c3cc4ccc(N5CC6CC5CN6)cc4oc3=O)cc2c(C)n1 (centres unmarked) [Compound 783]
Given back: 236 to 239 °C

---

readout: melting point

| chemical.structure | melting point |
| --- | --- |
| CCNCCCc1ccc2cc(-c3cn4cc(C)nc(C)c4n3)c(=O)oc2c1 | 184 to 186 °C |
| CN1CCN(c2ccc3cc(-c4cn5ccncc5n4)c(=O)oc3c2)CC1 | 246 to 249 °C |
| Cc1cn2cc(-c3cc4ccc(OCCN[C@@H](C)CO)cc4oc3=O)nc2c(C)n1 | 186 to 188 °C |

Now look at this one.
Asked: Look up melting point for this molecule: Cc1nccn2cc(-c3cc4ccc(N5CCN6CCC[C@H]6C5)cc4oc3=O)cc12
Given back: 175 to 178 °C

---

# key: entry, value: melting point

Worked examples follow.
| compound | melting point |
| --- | --- |
| Cc1ccn2cc(-c3cc4ccc(N5CCN6CCC5CC6)cc4oc3=O)nc2c1 | 216 to 223 °C |
| Cc1cn2cc(-c3cc4ccc(C5CCN(C6COC6)CC5)cc4oc3=O)nc2c(C)n1 | 217 to 223 °C |
| Cc1cccn2cc(-c3cc4ccc(N5CCN(CCO)CC5)cc4oc3=O)nc12 | 210 to 212 °C |
| Cc1ccc(-c2cc3ccc(N4CCN(C)CC4)cc3oc2=O)cn1 | 158 to 160 °C |
| O=c1oc2cc(N3CCNCC3)ccc2cc1-c1cn2cc(C3CC3)cc(F)c2n1 | 261 to 271 °C |
| Cc1cn2cc(-c3cc4ccc(N5CCC(NC(C)C)CC5)cc4oc3=O)nc2c(C)n1 | 216 to 218 °C |
| Cc1cn2cc(-c3cc4ccc(N5CCN(C)[C@H](C)C5)cc4oc3=O)nc2cn1 | 256 to 258 °C |
| Cc1cn2cc(-c3cc4ccc(N5CCN6CCCCC6C5)cc4oc3=O)nc2cn1 (stereo not drawn) | 275 to 277 °C |
| Cc1cc(C)c2nc(-c3cc4ccc(N5C[C@@H](C)N[C@@H](C)C5)cc4oc3=O)cn2c1 | 227 to 237 °C |
| Cc1ccn2cc(-c3cc4ccc(O[C@@H]5CCNC5)cc4oc3=O)nc2n1.Cl.Cl | 292 to 296 °C |

Asked: Look up melting point for this compound: O=c1oc2cc(N3CCNCC3)ccc2cc1-c1ccc(F)c(Cl)c1
Given back: 186 to 188 °C

Asked: Look up melting point for this compound: Cc1ccn2cc(-c3cc4ccc(N[C@H]5CCNC5)cc4oc3=O)nc2c1
Given back: 243 to 253 °C

Asked: Look up melting point for this compound: Cc1cn2cc(-c3cc4ccc(CCN(CCO)CCO)cc4oc3=O)nc2c(C)n1
Given back: 184 to 188 °C

Asked: Look up melting point for this compound: O=c1oc2cc(N3CCNCC3)ccc2cc1-c1ccncc1
Given back: 212 to 214 °C

Asked: Look up melting point for this compound: Cc1cccc(-c2cc3ccc(N4CCNCC4)cc3oc2=O)c1
Given back: 118 to 120 °C

Asked: Look up melting point for this compound: Cc1cn2cc(-c3cc4ccc(N5CCN6CCCCC6C5)cc4oc3=O)cc2cn1 (stereo not drawn)
Given back: 218 to 221 °C

Asked: Look up melting point for this compound: CN(C)CCN(C)c1ccc2cc(-c3nc4ccccc4s3)c(=O)oc2c1
Given back: 155 to 157 °C

Asked: Look up melting point for this compound: O=c1oc2cc(N3CCN4CCC3CC4)ccc2cc1-c1cn2ccsc2n1
Given back: > 300 °C

---

readout: melting point

Asked: Look up melting point for this compound: C[C@@H]1CN(c2ccc3cc(-c4cn5cccc(Cl)c5n4)c(=O)oc3c2)C[C@H](C)N1C
Given back: 244 to 247 °C

Asked: Look up melting point for this compound: O=c1oc2cc(N3CCNCC3)ccc2cc1-c1cccc(F)c1
Given back: 148 to 150 °C

Asked: Look up melting point for this compound: C[C@@H]1CN(c2ccc3cc(-c4cn5cccc(F)c5n4)c(=O)oc3c2)CCN1
Given back: 226 to 228 °C

Asked: Look up melting point for this compound: CCN1CCN(c2ccc3cc(-c4cn5cccnc5n4)c(=O)oc3c2)CC1
Given back: 300 to 302 °C

Asked: Look up melting point for this compound: Cc1ccn2nc(-c3cc4ccc(N5C[C@@H](C)N[C@@H](C)C5)cc4oc3=O)cc2c1
Given back: 200 to 202 °C

Asked: Look up melting point for this compound: Cc1cn2cc(-c3cc4ccc(N5C[C@@H](C)N[C@@H](C)C5)cc4oc3=O)nc2s1
Given back: 210 to 212 °C

Asked: Look up melting point for this compound: C[C@@H]1CN(c2ccc3cc(-c4nc5c(F)cccc5o4)c(=O)oc3c2)C[C@H](C)N1
Given back: 242 to 243 °C

Asked: Look up melting point for this compound: Cc1cn2cc(-c3cc4ccc(C5CCN(CCCF)CC5)cc4oc3=O)nc2cn1
Given back: 224 to 234 °C

---

# key: entry, value: melting point
Counter-ions that a name gives are not always drawn.

Worked examples follow.
| molecule | melting point |
| --- | --- |
| CN1CCN(c2ccc3cc(-c4cn5ccc(C(F)(F)F)cc5n4)c(=O)oc3c2)CC1 | 274 to 280 °C |
| Cl.O=c1oc2cc(N3CCNCC3)ccc2cc1-c1nc2cccc(C(F)(F)F)c2o1 | 297 to 307 °C |
| Cc1cn2cc(-c3cc4ccc(N5CCN(C)[C@@H](C)C5)cc4oc3=O)ccc2n1 | 205 to 207 °C |
| C[C@H]1CN(c2ccc3cc(-c4cn5ccc(C(F)(F)F)cc5n4)c(=O)oc3c2)CCN1 | 252 to 260 °C |
| CN1CCCN(c2cc(F)c3cc(-c4nc5c(F)cccc5o4)c(=O)oc3c2)CC1 | 224 to 228 °C |
| Cc1cn2cc(-c3cc4ccc(CCCNC(C)C)cc4oc3=O)nc2c(C)n1 | 184 to 187 °C |
| CC(C)N1CCN(c2ccc3cc(-c4cc5ccccn5n4)c(=O)oc3c2)CC1 | 243 to 246 °C |
| Cc1ccc2nc(-c3cc4ccc(CNC(C)CO)cc4oc3=O)cn2c1 (stereo not drawn) | 224 to 227 °C |
| Cc1cn2cc(-c3cc4ccc(CCCN(C)C)cc4oc3=O)cc(F)c2n1 | 185 to 188 °C |
| Cc1cn2cc(-c3cc4ccc(N5C[C@H]6CCCN[C@H]6C5)cc4oc3=O)nc2c(C)n1 [Compound 655] | 259 to 269 °C |

Asked: Look up melting point for this molecule: Cc1ccc2nc(-c3cc4ccc(N5CCN(C(C)C)CC5)cc4oc3=O)cn2c1
Given back: 260 °C (dec.)

Asked: Look up melting point for this molecule: C[C@H]1CN(c2ccc3cc(-c4cn5cc(C6CC6)cc(F)c5n4)c(=O)oc3c2)CCN1
Given back: 254 to 263 °C

Asked: Look up melting point for this molecule: Cc1nccn2cc(-c3cc4ccc(N5CCCN(C)CC5)cc4oc3=O)cc12
Given back: 125 to 128 °C

Asked: Look up melting point for this molecule: CC(C)NCc1ccc2cc(-c3nc4c(Cl)cccc4s3)c(=O)oc2c1
Given back: 157 to 161 °C

Asked: Look up melting point for this molecule: C[C@@H]1CN(c2ccc3cc(-c4ccc5c(c4)OCO5)c(=O)oc3c2)CCN1
Given back: 135 to 137 °C

Asked: Look up melting point for this molecule: Cc1ccn2cc(-c3cc4ccc(N5CCN[C@@H](C)C5)cc4oc3=O)nc2n1
Given back: 298 to 301 °C

Asked: Look up melting point for this molecule: O=c1oc2cc(N3C[C@@H]4C[C@H]3CN4)ccc2cc1-c1cn2cccnc2n1 (as salt: hydrochloride)
Given back: > 300 °C
